The origin of these recorded values is the supplement of paper PMC7125110.

B1: glmS ribozyme (parent)
chain: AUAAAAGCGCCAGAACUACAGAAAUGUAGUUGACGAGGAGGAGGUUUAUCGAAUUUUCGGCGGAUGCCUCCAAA

variants of: B1; assay: self-cleavage kobs at 160 uM GlcN6P; higher = faster cleavage; RNA array; conditions: with glucosamine-6-phosphate
This sample holds only a part of the variants without activity.
measured_property: self-cleavage kobs at 160 uM GlcN6P

Below, 4 variants whose answers are already recorded.
1) AUAAAAGCGCCAGGACUACAGAAAUGUAGUUGACAAGGAGGAGGUUCAUCGAAUUUUCGGCGGAUGACUCCAAA [A14G G35A U47C C67A]
< 1e-05 s⁻¹
2) AUAAAAGCGACAGAACUACAGAAAUGUAGUUGACGAGGAGGAGGUUUAUCGAAUUUUCCGCGGAUGCCUCCAAA [C10A G59C]
< 1e-05 s⁻¹
3) AUAAAAGCGCCAGAACUACAGAAAUGUAGUUGACGAGGAGAAGGUUUAUCGAAUUUUCAGCGGAUGCCUCCAAA [G41A G59A]
< 1e-05 s⁻¹
4) AUAAAAGCGCCAGAACUACAGAAAUGUAGUCGACUAGGCGGAGUUUUAUCGAAUAUUCGGCGGAUGCCUCCAAA [U31C G35U A39C G44U U55A]
< 1e-05 s⁻¹

Hello, I would appreciate it if you could give self-cleavage kobs at 160 uM GlcN6P for each entry below.
1. AUAAAAGCGCCAGAACUACAGAAAUGUAGUUGACGCGGAGGGGGUUUAUCGAAUUUUCGGCGGAUGCCUCCAAA [A36C A42G]
2. AUAAAAGCGCCAGAACUACAGAAAUGUAGUUGACGAGGAGGGGGUUUGUCGAAAUUUCGGCGGAUGCCUCCAAA [A42G A48G U54A]
3. AUAAAUGCGCAUGAACUACAGAAAUGUAGUUGAGGAGGAGGAGGUUUAUUGAAUGUUCGGCGGAUGCCUCCAAA [A6U C11A A12U C34G C50U U55G]
4. AUAAAAGCGCCAGAACUACAGAAAUGUAGUUGACGAGGAGGACGUUUAUCGAAUUUUCGGCGGAUGCCUCGAAA [G43C C71G]
5. AUAAAAGCGCCAGAACUACAGAAAUGUAGUAGGCGAGGAGGAGGUUUAUCGAAUUUUCGGCGGAUGCCUCCAAA [U31A A33G]
6. AUAAAAGCGCCAGGACUACAGAAAUGUAGUCGACGAGGAGGAGGUUUAUCGAAUUAUCGGCGGAUGCCUCCAAA [A14G U31C U56A]
7. AUAAAAGCGCCAGAACUACAGAAAUGUAGUUGACGAGGAGUAGGUAUAUCGAAUUUUCGGCGGAUGCCUCCAAA [G41U U46A]

Given back:
["< 1e-05 s⁻¹", "< 1e-05 s⁻¹", "< 1e-05 s⁻¹", "< 1e-05 s⁻¹", "< 1e-05 s⁻¹", "0.0016 s⁻¹", "4.83e-05 s⁻¹"]

Hello, I would appreciate it if you could give self-cleavage kobs at 160 uM GlcN6P for each entry below.
1. AUAAAAGCGCCAGAACUACAGAAAUGUAGUUGAUGAGGAGCAGGUUUAUCGAAUUUUCAGCGGGUGCCUCCAAA [C34U G41C G59A A64G]
2. AUAAAAGCGCCAGAACUACAGAAAUGUAGUUGACGAGGACGGGGUUUAUCGACUUUUCGGCGGAUGCCUCCAAA [G40C A42G A53C]
3. AUAAAAGCGCCAGAACUACAGAAAUGUAGUUGACGAGGAAGAGGUUUAUCGAAUUUUCGGCGGAUGGCUCCAAA [G40A C67G]
4. AUAAAAUUGCCGGAACUACAGAAAUGUAGUUGACGAGGAGGAGGUUUAUCCAAUUUUCGGUGGAUGCCUCCAAA [G7U C8U A12G G51C C61U]
5. AUAAAAGCGCCAGAACUACAGAAAUGUAGUUGACGAGGUGGUGGUUUAUCGAAUUUUCGGCGGAUGCCUCCAAA [A39U A42U]
6. AUAAAAGCGCCAGAAGUACAGAAAUGUAGUUGACGAGGAGGAGGUUUAUCGAAUGUUCGGCGGAUGCCUCCAAA [C16G U55G]

Given back:
< 1e-05 s⁻¹
5.62e-05 s⁻¹
< 1e-05 s⁻¹
< 1e-05 s⁻¹
0.000582 s⁻¹
0.000227 s⁻¹
